Property: MIC; scope: individual molecules
- Tested on: Streptococcus pneumoniae
- test details: In vitro antibacterial activity of 5979 strain of Gram positive bacteria Streptococcus pneumoniae
- Assay type: functional
Numeric only. Scale: µg/mL

[[record]]
smiles_text = "CC[C@H]1OC(=O)/C(C)=C/[C@H](C)[C@@H](O[C@@H]2O[C@H](C)C[C@H](N(C)C)[C@H]2O)[C@@](C)(OC)C[C@@H](C)C(=O)[C@H](C)[C@H]2N(NCCc3ccc(Oc4ccccc4)cc3)C(=O)O[C@]12C"
reported_result = 16


Let us examine a further case.
Exercise: Could you please provide reported MIC for CC[C@H]1OC(=O)/C(C)=C/[C@H](C)[C@@H](O[C@@H]2O[C@H](C)C[C@H](N(C)C)[C@H]2O)[C@@](C)(OC)C[C@@H](C)C(=O)[C@H](C)[C@H]2N(NCCCc3cccc([N+](=O)[O-])c3)C(=O)O[C@]12C ? Thanks!
Key: 128
